biological target: human mineralocorticoid receptor (MR) (Homo sapiens, UniProt P08235); experiment: Nuclear hormone receptor panel screen (luciferase reporter, HEK293), MR; settings: antagonist mode, 0.08 nM aldosterone
Sequence (P08235 whole entry): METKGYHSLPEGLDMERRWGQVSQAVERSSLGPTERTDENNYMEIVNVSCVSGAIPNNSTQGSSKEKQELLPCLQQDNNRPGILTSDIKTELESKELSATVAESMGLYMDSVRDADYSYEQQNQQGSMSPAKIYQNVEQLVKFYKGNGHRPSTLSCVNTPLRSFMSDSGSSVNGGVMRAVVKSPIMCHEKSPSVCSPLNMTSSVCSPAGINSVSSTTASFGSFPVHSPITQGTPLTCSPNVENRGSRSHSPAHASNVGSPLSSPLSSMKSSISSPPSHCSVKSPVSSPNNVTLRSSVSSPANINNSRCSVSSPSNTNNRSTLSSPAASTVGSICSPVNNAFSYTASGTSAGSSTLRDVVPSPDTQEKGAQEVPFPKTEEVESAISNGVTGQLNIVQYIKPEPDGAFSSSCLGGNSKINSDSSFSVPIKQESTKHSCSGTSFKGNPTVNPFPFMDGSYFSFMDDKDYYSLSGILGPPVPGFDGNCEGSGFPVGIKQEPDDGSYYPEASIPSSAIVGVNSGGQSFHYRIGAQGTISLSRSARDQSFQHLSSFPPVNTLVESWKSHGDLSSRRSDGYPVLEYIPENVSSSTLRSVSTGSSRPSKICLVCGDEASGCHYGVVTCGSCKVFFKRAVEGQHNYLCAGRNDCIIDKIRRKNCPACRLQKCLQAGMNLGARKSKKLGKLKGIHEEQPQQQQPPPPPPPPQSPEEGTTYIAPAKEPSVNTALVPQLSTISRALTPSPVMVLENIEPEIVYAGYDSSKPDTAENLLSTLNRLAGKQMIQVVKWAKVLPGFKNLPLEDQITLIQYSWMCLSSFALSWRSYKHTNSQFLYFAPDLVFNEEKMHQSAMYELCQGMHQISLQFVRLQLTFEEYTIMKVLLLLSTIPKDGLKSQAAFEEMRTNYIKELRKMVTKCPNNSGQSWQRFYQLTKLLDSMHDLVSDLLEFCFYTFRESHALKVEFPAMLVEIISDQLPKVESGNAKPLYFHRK
pIC50: −log10 of the molar value.
Readout name: pIC50

Value of pIC50 reported for the compound O=c1[nH]c2cc(/C=C3\c4ccccc4COc4cc(F)ccc43)ccc2n1[C@@H]1C[C@@H]2COCCN2C1 [Compound (I)] is ~7.68

---

molecular target: human mineralocorticoid receptor (MR) (Homo sapiens, UniProt P08235); construct: expressed in transfected cells; host or cells: HEK293; assay: Nuclear hormone receptor panel screen (luciferase reporter, HEK293), MR; assay type: cell-based; conditions: agonist mode
Readout name: EC50

Value of EC50 reported for the compound O=c1[nH]c2cc(/C=C3\c4ccccc4COc4cc(F)ccc43)ccc2n1[C@@H]1C[C@@H]2COCCN2C1 is > 10 µM
